These data points were gathered from the supplement of paper PMC10567573.

B1: S100A14 (parent)
chain: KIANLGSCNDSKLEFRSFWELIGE

- Variants of: B1
- Assay overview: protein stability index of a GFP-peptide fusion (GPS, HEK-293T) (PSI 1-6); higher = more stable;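 also: lentivirally expressed fusions sorted by FACS into six bins by GFP to DsRed ratio, PSI derived from sequencing read proportions per bin multiplied by bin number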
- Cond: c terminus: a fixed tail appended
Property: protein stability index
Format: numeric value only, no unit, no commentary.

# annotated cases, reported protein stability index shown
> print(dat)
   mutation.annotation  reported.value
1                  C8T            1.76
2                 L21I            1.54
3                  S7F            2.13

Challenge: Looking for the measured protein stability index of E14R , can you help?
Response given: 2.7

Challenge: K12H ?
Response given: 2.35

Challenge: E14F ?
Response given: 1.89

Challenge: D10E ?
Response given: 2.21

Challenge: I22T ?
Response given: 2.25
